Listed next: entries and their corresponding CC50 at 72 h.
Test Method Notes: Cytotoxicity against African green monkey Vero cells measured after 72 hrs by resazurin assay
Type: cell-based
Cond: chlorocebus sabaeus
Report only the number, with the unit µM understood.

For orientation, consider the following solved cases.
CC(=O)OC[C@H]1O[C@@H](CC(=O)/C=C2\C(=O)N(CCc3ccccc3)c3ccc(Cl)cc32)[C@H](OC(C)=O)[C@@H](OC(C)=O)[C@@H]1OC(C)=O    93
CCCCN1C(=O)/C(=C\C(=O)C[C@@H]2O[C@H](COC(C)=O)[C@@H](OC(C)=O)[C@H](OC(C)=O)[C@H]2OC(C)=O)c2cc(Cl)ccc21    88.9
CC(=O)OC[C@H]1O[C@@H](CC(=O)/C=C2\C(=O)N(Cc3ccc(Br)cc3)c3ccc(Cl)cc32)[C@H](OC(C)=O)[C@@H](OC(C)=O)[C@@H]1OC(C)=O    93.3
CC(=O)OC[C@H]1O[C@@H](CC(=O)/C=C2\C(=O)N(Cc3ccc(Br)cc3)c3ccccc32)[C@H](OC(C)=O)[C@@H](OC(C)=O)[C@@H]1OC(C)=O    76.5

Inquiry: Consider the compound `CC(=O)OC[C@H]1O[C@@H](CC(=O)/C=C2\C(=O)N(Cc3ccccc3)c3ccc(Cl)cc32)[C@H](OC(C)=O)[C@@H](OC(C)=O)[C@@H]1OC(C)=O` and give its measured CC50 at 72 h.
Reply text: 91.2

Value source: ChEMBL document CHEMBL4382238
